- Tested on: Ran GTPase (GTP-bound) - importin-beta complex
- Assay Summary: disruptors of Ran-importin-beta complex formation – biochemical, FRET, CFP-Ran, YFP-importin-beta, homogeneous, primary screen (AID 2216);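 further: 0% = DMSO wells and 100% = Ran loaded with GDP instead of GTP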
- Measurement Setup: cell-free CFP-Ran/YFP-importin-beta FRET ratio; concentration not given here
The whole screen tested about 300,000 compounds, of which about 3,300 (1.1%) were called active. Not shown: some 6% with an inconclusive outcome.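 How the source made its calls: active means more than half of the replicate wells show a fall in the fluorescence ratio signal beyond about 16% (limit read from the data, passing the limit was not always enough); inconclusive means exactly half of the replicate wells pass the set limit; inactive means fewer than half of replicates pass the limit.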 The sample as a whole holds a higher share of actives than the screen did.
Your answer must be one of the following: TRUE (active), FALSE (inactive)

# count of solved cases: 2
COc1ccc(C2CC(c3cccs3)=NN2C(=O)CSc2nncs2)cc1OC (configuration not stated) | FALSE
O=C1CN(C(=O)COc2c(Cl)cccc2Cl)c2ccccc2N1 | FALSE

For the next question, use this compound.
Prompt: Record lookup: outcome of this test for CCC1CCC/C1=N\NC(=O)c1ccc(Cl)cc1 (configuration not stated) ?
Response: FALSE

###

- System: Ran GTPase (GTP-bound) - importin-beta complex
- Assay Summary: disruptors of Ran-importin-beta complex formation – biochemical, FRET, CFP-Ran, YFP-importin-beta, homogeneous, primary screen (AID 2216);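 further: 0% = DMSO wells and 100% = Ran loaded with GDP instead of GTP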
- Measurement Setup: cell-free CFP-Ran/YFP-importin-beta FRET ratio; concentration not given here
Screen size: about 300,000 compounds; about 3,300 (1.1%) were called active. About 6% were inconclusive and are not listed.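 How the source made its calls: active means more than half of the replicate wells show a fall in the fluorescence ratio signal beyond about 16% (limit read from the data, passing the limit was not always enough); inconclusive means exactly half of the replicate wells pass the set limit; inactive means fewer than half of replicates pass the limit.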 The list comes from a sample in which actives are over-represented; it also holds close analogues and randomly drawn compounds.
Your answer must be one of the following: active, inactive

COc1ccc(CCNC(=O)C(=O)NCC2CCCN2S(=O)(=O)c2cccs2)cc1OC (stereo not given) | inactive
CCOC(=O)C1=C(N)N(c2ccc(C)cc2)C2=C(C(=O)CCC2)C1c1cccs1 (stereo not given) | inactive
Oc1c(CN2CCN(c3ccc(F)cc3)CC2)cc(Cl)c2cccnc12 | active
CCN1CCN(C(c2cccnc2)c2cc(Cl)c3cccnc3c2O)CC1 (stereo not given) | inactive

For the next question, use this compound.
Prompt: Record lookup: outcome of this test for CCOc1ccc(C2C(C#N)=C(N)N(N(C)C)C3=C2C(=O)CCC3)cc1 (stereo not given) ?
Response: inactive

###

Recorded measurements of inhibition, one per entry
- Tested on: Ran GTPase (GTP-bound) - importin-beta complex
- Assay Summary: disruptors of Ran-importin-beta complex formation – biochemical, FRET, CFP-Ran, YFP-importin-beta, homogeneous, primary screen (AID 2216);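 further: 0% = DMSO wells and 100% = Ran loaded with GDP instead of GTP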
- Measurement Setup: cell-free CFP-Ran/YFP-importin-beta FRET ratio; hits give high values; concentration not given here
Screen size: about 300,000 compounds; about 3,300 (1.1%) were called active. Inconclusive results (about 6%) are left out. The sample holds actives, similar compounds and a random draw of the others, so the mix is not that of the screen.
All answers are understood in %, so give the number only.

COc1ccc(C(CNC(=O)c2cccc(S(=O)(=O)Nc3ccccc3Cl)c2)N2CCOCC2)cc1 (stereo unspecified) | 10.7
CC1Cc2cc(/C(O)=C3\C(=O)C(=O)N(CCN4CCOCC4)C3c3ccccc3F)ccc2O1 (stereo unspecified) | 1.9
CCCn1nc(NC(=O)C(C)C)c2cc3cc(OC)ccc3nc21 | 57.9

Prompt: Name the recorded inhibition for CCCCn1c(N)c(N(CC)C(=O)c2ccc(N(C)S(=O)(=O)c3ccc(C)cc3)cc2)c(=O)[nH]c1=O .
Response: -4.28

Prompt: Name the recorded inhibition for Cc1cc(Nc2ccccc2)n(CCC#N)n1 .
Response: 64.2

Prompt: Name the recorded inhibition for Cc1cc2c(cc1C)NC(c1ccccn1)C1=C(CC(C)(C)CC1=O)N2 (stereo unspecified) .
Response: -3.07

Prompt: Name the recorded inhibition for CCN1CCN(c2ccc(S(=O)(=O)N3CCCCC3)cc2NC(=O)Cc2c(Cl)cccc2Cl)CC1 .
Response: 1.25

Prompt: Name the recorded inhibition for CCN1C(=O)/C(=c2\s/c(=C3\Sc4ccccc4N3C)c(=O)n2C)N(C)C1=S .
Response: 1.12

Prompt: Name the recorded inhibition for O=C(NCCOc1cccnc1)c1ccc(OC2CCN(Cc3ccccn3)CC2)cc1 .
Response: 0.854
